System: CMS
Parameters: species or system AML cell lines (8); Primary HTS, single concentration about 10 uM, Cell Titer Glo viability; log10 luminescence, per cent inhibition relative to cycloheximide control
condition parameters: 72 h, relative to cycloheximide control, log10 luminescence; inhibitor

>  <smiles record>
CCn1c(-c2nonc2N)nc2ccncc21

>  <CMS %inh / %>
-0.06255

$$$$
>  <smiles record>
Clc1cnc(Oc2ccc(Oc3ncc(Cl)cc3Cl)cc2)c(Cl)c1

>  <CMS %inh / %>
-0.7867

$$$$
>  <smiles record>
COC(=O)c1sc(-n2cnc3cc(OC)c(OC)cc32)cc1OCc1ccccc1C(F)(F)F

>  <CMS %inh / %>
4.6

$$$$
>  <smiles record>
COc1cc2ncn(-c3cc(OCc4ccccc4Cl)c(C(N)=O)s3)c2cc1OC

>  <CMS %inh / %>
71.19

$$$$
>  <smiles record>
CCCCOCCOc1nc(-c2ccc(C(=O)O)c(F)c2)sc1C

>  <CMS %inh / %>
12.33

$$$$
>  <smiles record>
Fc1ccc(-c2c(-c3ccncc3)n(CCN3CCOCC3)c3cccnc23)cc1

>  <CMS %inh / %>
2.843

$$$$
>  <smiles record>
Nc1c(C(=O)c2ccc(-c3cccnc3)cc2)cnn1-c1ccc(F)cc1

>  <CMS %inh / %>
7.229

$$$$
>  <smiles record>
Fc1ccc(-c2nn3ncccc3c2-c2ccnc(Nc3ccc4c(c3)OCCO4)n2)cc1

>  <CMS %inh / %>
13.71

$$$$

====

Entries and their EC50
System: MOLM-13
measurement description: cells
Set-up: species or system AML cell lines (8); Secondary HTS, 10-point dose-response in triplicate, Cell Titer Glo viability, four-parameter fit EC50
condition parameters: Homo sapiens, MOLM-13, 72 h, read-out: MOLM-13

>  <molecule>
CNCc1ccc(-c2[nH]c3cc(F)cc4c3c2CCNC4=O)cc1

>  <EC50>
> 10 µM

$$$$
>  <molecule>
CCCC(=O)OCOC(=O)C(C)(C)C

>  <EC50>
> 10 µM

$$$$
>  <molecule>
N#Cc1ccc(COC[C@H]2O[C@@H](n3c(NCc4ccc(Cl)c(Cl)c4)nc4c(N)ncnc43)[C@H](O)[C@@H]2O)cc1

>  <EC50>
> 10 µM

$$$$
>  <molecule>
CCN1CCN(c2ccc(Nc3cc(N(C)C(=O)Nc4c(Cl)c(OC)cc(OC)c4Cl)ncn3)cc2)CC1

>  <EC50>
> 10 µM

$$$$
>  <molecule>
O=C(CCCCCCNC(=O)c1cnc(N(c2ccccc2)c2ccccc2)nc1)NO

>  <EC50>
> 10 µM

$$$$
>  <molecule>
N[C@@H]1C[C@H]1c1cc(F)cc(F)c1OCc1ccccc1

>  <EC50>
> 10 µM

$$$$
>  <molecule>
CC1=C(/C=C/C(C)=C/C=C/C(C)=C/C(=O)O)C(C)(C)CCC1

>  <EC50>
> 10 µM

$$$$
>  <molecule>
O=C(NC(NC(=S)Nc1ccc(F)c([N+](=O)[O-])c1)C(Cl)(Cl)Cl)C(c1ccccc1)c1ccccc1 (stereo not shown)

>  <EC50>
> 10 µM

$$$$
>  <molecule>
COc1cc(Nc2ncc(F)c(Nc3ccc4c(n3)NC(=O)C(C)(C)O4)n2)cc(OC)c1OC

>  <EC50>
0.14 µM

$$$$
>  <molecule>
CN(C)CCCNc1c2ccccc2nc2c1[nH]c1ccccc12

>  <EC50>
1.6 µM

$$$$
